Target: ABCG2 (Homo sapiens, UniProt Q9UNQ0)
Sequence (Q9UNQ0 1-655): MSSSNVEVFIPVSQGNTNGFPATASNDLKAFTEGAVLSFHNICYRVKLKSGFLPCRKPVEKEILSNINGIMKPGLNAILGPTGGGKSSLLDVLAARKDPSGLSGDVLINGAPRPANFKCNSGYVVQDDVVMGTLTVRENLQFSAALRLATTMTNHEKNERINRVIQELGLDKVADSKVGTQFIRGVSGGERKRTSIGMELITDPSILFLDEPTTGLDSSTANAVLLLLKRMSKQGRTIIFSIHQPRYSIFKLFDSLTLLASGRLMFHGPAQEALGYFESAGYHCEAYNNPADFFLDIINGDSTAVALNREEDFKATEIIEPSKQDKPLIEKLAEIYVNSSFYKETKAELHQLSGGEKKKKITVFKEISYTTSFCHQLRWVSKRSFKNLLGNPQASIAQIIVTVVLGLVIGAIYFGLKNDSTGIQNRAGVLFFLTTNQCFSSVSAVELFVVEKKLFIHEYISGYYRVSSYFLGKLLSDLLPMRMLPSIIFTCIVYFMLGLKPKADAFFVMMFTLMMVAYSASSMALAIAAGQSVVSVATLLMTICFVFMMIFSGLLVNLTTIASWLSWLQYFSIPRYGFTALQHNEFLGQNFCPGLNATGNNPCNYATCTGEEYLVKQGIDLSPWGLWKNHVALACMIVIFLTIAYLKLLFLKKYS
Assay: Hoechst 33342 assay (plate reader), MDCK II BCRP cells
observable: IC50 (µM)
# unit: µM | format: bare number

Q. Look up IC50 for this compound: COc1ccc(OCc2noc(CN3CCN(C(=O)C45CC6CC(CC(C6)C4)C5)CC3)n2)cc1
A. 28.5

Q. // query: Cc1onc(-c2ccccc2Cl)c1C(=O)N1CCN(Cc2nnnn2-c2ccc(F)cc2)CC1
A. 37.9
